// reported ratio of amounts bound vs CE115HA000 per item
Biological target: T1, CD3ε homodimer protein (human, UniProt P07766 23-126, limits assumed, sulfo-tag or biotin label in some ECL assays)
T1 construct: also called human CD3ε homodimer protein; CD3 (CD3ε)
T1 sequence (P07766 23-126 limits assumed): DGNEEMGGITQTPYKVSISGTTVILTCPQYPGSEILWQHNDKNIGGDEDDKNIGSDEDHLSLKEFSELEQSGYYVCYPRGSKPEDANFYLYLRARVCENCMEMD
Assay: SPR, CD3ε homodimer on chip;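 further: biacore SPR with antibody variants flowed as analyte over amine-coupled CD3ε homodimer on a CM chip, bound amount of each single-residue H chain variant over that of parent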

Fill in the blank: the reported ratio of amounts bound vs CE115HA000 of CE115HA000 Q105E (antibody, name in Kabat numbering, V domains shown) VH: QVQLVESGGGVVQPGRSLRLSCAASGFTFSNAWMHWVRQAPGKGLEWVAQIKAKSNNYATYYAESVKGRFTISRDDSKNSLYLQMNSLKTEDTAVYYCRYVHYGAYYGVDAWGEGTTVTVSS VL: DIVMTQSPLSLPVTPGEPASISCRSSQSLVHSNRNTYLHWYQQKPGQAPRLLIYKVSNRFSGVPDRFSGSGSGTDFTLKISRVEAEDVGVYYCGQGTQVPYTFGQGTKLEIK is ____. 0.94

Fill in the blank: the reported ratio of amounts bound vs CE115HA000 of CE115HA000 E61D (antibody, name in Kabat numbering, V domains shown) VH: QVQLVESGGGVVQPGRSLRLSCAASGFTFSNAWMHWVRQAPGKGLEWVAQIKAKSNNYATYYADSVKGRFTISRDDSKNSLYLQMNSLKTEDTAVYYCRYVHYGAYYGVDAWGQGTTVTVSS VL: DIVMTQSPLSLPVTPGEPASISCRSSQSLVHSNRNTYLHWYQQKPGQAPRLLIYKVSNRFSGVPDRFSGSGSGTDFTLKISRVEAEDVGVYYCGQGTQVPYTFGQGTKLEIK is ____. 0.91

Source: patent US20220040297A1
